Cited source for all entries: PubChem BioAssay AID1626

tested on: M. tuberculosis H37Rv growth inhibition; experiment: M. tuberculosis H37Rv growth inhibitors, H37Rv strain (AID 1626); details: measured here: Vero cell cytotoxicity
What CC50 was measured for each of the following?

Any idea what its CC50 is? The compound is CCOC(=O)N1CCC(N2CCCC(C(=O)c3ccc4cc(OC)ccc4c3)C2)CC1 (stereo not given) > 40 µM

Fill blank: measured CC50 of the compound "O=C(Nc1nc(-c2ccccn2)cs1)c1cc2ccccc2o1" is ____. > 40 µM

I have this compound here, COc1ccc(OC)c(C2C3=C(N=c4s/c(=C\c5cccc(O)c5)c(=O)n42)c2ccccc2CC3)c1 (stereo not given) , and I need its recorded CC50. 19.9 µM

Look up CC50 for this compound: "c1ccc2c(-c3nc(C4CCCCC4)no3)cc(-c3ccncc3)nc2c1" > 40 µM

Which CC50 value is on record for "CCOC(=O)N1CCN(C(=O)CSc2nc(-c3cccc(C)c3)ns2)CC1" ? > 40 µM

----------
system: M. tuberculosis H37Rv growth inhibition; assay: M. tuberculosis H37Rv growth inhibitors, H37Rv strain (AID 1626); conditions: measured here: Vero cell cytotoxicity
Please provide measured log10 CC50 for the entries that follow.
Please keep in mind that the values are log10 of CC50 expressed in µM.

I'd like to know its log10 CC50. The compound in question is "Cc1ccccc1NC(=O)Nc1ccc(C(F)(F)F)cc1" 1.37

Any idea what its log10 CC50 is? The compound is "Clc1ccc2nc(-c3ccccn3)c(Nc3ccc4c(c3)OCO4)n2c1" 1.05

Please report the recorded log10 CC50 for "Nc1ncnc(Oc2cccc3cccnc23)c1[N+](=O)[O-]" . 1.57

Any idea what log10 CC50 was measured for CCOC(=O)C1=C(c2ccccc2)NC(N)=NC1c1ccc(OCc2ccc(Cl)cc2)c(OC)c1 (stereo not drawn) ? 1.35

# lookup: log10 CC50 of "Cc1ccc(C(=O)CC(=O)c2cc(Cl)ccc2O)cc1" 1.31

Which log10 CC50 value belongs to "COc1ccc(Cn2c(SCc3ccccc3C)nc3cc(OC)c(OC)cc3c2=N)cc1" ? 0.83

So what's the measured log10 CC50 for this one? "O=C1c2cc([N+](=O)[O-])cc3cc([N+](=O)[O-])cc(c23)C(=O)N1c1ccccn1" 1.56

Which log10 CC50 value is on record for CCc1ccc2c(c1)C1(C(=O)N2)N2CCCC2C(C(=O)c2ccc3ccccc3c2)C12C(=O)Nc1ccccc12 (stereo not drawn) ? 1.25

Give the measured log10 CC50 of "Cc1ccc(Nc2cc(C)nn2-c2nc(C)cc(C)n2)cc1" . 1.13

I'd like to know its log10 CC50. The compound in question is "Cn1cc(C(=O)CCl)c2ccccc21" 1.04

Look up log10 CC50: "Cc1ccc(-c2ccc(/C=C/C(=O)c3ccccc3)o2)cc1" 1.39

log10 CC50 lookup needed for "O=S(=O)(c1ccc(Cl)c(Cl)c1)c1snnc1-c1ccccc1" , thanks. 0.58

Which log10 CC50 value belongs to "COc1ccc(O)c(C(=O)CC(=O)c2ccccc2C)c1" ? 1.23

Would you mind telling me what log10 CC50 value was observed for "CC(C)[C@H](NC(=O)c1ccccc1Cl)C(=O)Nc1nc(-c2ccccn2)cs1" ? 0.97

Look up log10 CC50: "COc1cccc2c1C(=O)c1c(O)c3c(c(O)c1C2=O)C[C@@](O)(C(=O)CO)C[C@@H]3O[C@H]1C[C@H](N)[C@@H](O)[C@H](C)O1" 0.87

Query: log10 CC50; subject: N=C1SC(c2ccccc2)C(=O)N1c1ncc(Cc2ccccc2)s1 (stereo not drawn) 1.54

Recorded log10 CC50 of "Nc1nc(CCl)nc(Nc2ccccc2)n1" , please. 0.52

Tell me the measured log10 CC50 of "O=C(c1ccc([N+](=O)[O-])s1)N1CCN(c2cccc(Cl)c2)CC1" , please. 1.50

Look up log10 CC50 for this compound: COc1ccc(C2NCCc3c2[nH]c2ccccc32)cc1COc1ccc(F)cc1 (stereo not drawn) 1.08
